tested on: MDA-MB-231 human breast cancer cell lines; assay: MTT proliferation (cytotoxicity) assay on MDA-MB-231 cells; type: cell-based; details: 72 h; IC50 normal cells (MCF-10A) divided by IC50 MDA-MB-231
assay metric: SI (selectivity index) MDA-MB-231

[
  {
    "mol smiles": "CCCCC(=O)Nc1ccccc1/C=C/Cc1ccc(OC)cc1",
    "assay metric": "SI (selectivity index) MDA-MB-231",
    "value measured": "< 0.93"
  },
  {
    "mol smiles": "CCCCCC(=O)Nc1ccccc1C/C=C/c1ccc(OC)cc1",
    "assay metric": "SI (selectivity index) MDA-MB-231",
    "value measured": "< 0.69"
  },
  {
    "mol smiles": "CCCCC(=O)Nc1ccccc1C/C=C/c1ccc(OC)cc1",
    "assay metric": "SI (selectivity index) MDA-MB-231",
    "value measured": "< 0.71"
  },
  {
    "mol smiles": "CCCCCC(=O)Nc1ccccc1/C=C/Cc1ccc(OC)cc1",
    "assay metric": "SI (selectivity index) MDA-MB-231",
    "value measured": "< 0.99"
  },
  {
    "mol smiles": "COc1ccc(C/C=C/c2ccccc2NC(=O)c2ccccc2C)cc1",
    "assay metric": "SI (selectivity index) MDA-MB-231",
    "value measured": "> 1.36"
  }
]
